Listed below: Kp at 1 h values for each entry.
- PROTOCOL_TEXT: Ratio of drug level in brain to plasma in Sprague-Dawley rat at 10 mg/kg, ip after 1 hr
- Assay type: ADME, organism-based
- Design: dose 10 mg/kg, route intraperitoneal
- STUDY_CONDITIONS: brain and plasma, read-out: BPR
PARAMETER: Kp at 1 h

{"columns": ["SMILES_STRING", "OBSERVED"],
 "data": [
  ["Cc1cccnc1-n1ncc(-c2ccc(OCCCN3CCC[C@H]3C)cc2)cc1=O", 0.2],
  ["CC(C)n1ncc(-c2ccc(OCCCN3CCC[C@H]3C)cc2)cc1=O", 5.1],
  ["C[C@H]1CCCN1CCCOc1ccc(-c2cnn(-c3ccccn3)c(=O)c2)cc1", 1.7],
  ["Cc1cccnc1-n1nc(C)c(-c2ccc(OCCCN3CCC[C@H]3C)cc2)cc1=O", 0.5],
  ["Cn1ncc(-c2ccc(OCCCN3CCCCC3)cc2)cc1=O", 5.3],
  ["O=c1cc(-c2ccc(OCCCN3CCCCC3)cc2)cn[nH]1", 3],
  ["Cc1nn(C)c(=O)cc1-c1ccc(OCCCN2CCC[C@H]2C)cc1", 1.7],
  ["Cc1cccc(-n2ncc(-c3ccc(OCCCN4CCC[C@H]4C)cc3)cc2=O)n1", 1],
  ["C[C@@H]1CCCN1CCCOc1ccc(-c2cn[nH]c(=O)c2)cc1", 1.8],
  ["O=c1cc(-c2ccc(OCCCN3CCCCCC3)cc2)cnn1-c1ccccn1", 1.8]
]}

Numbers sourced from ChEMBL document CHEMBL1955733.
